The origin of these recorded values is the Immune Epitope Database (IEDB).

Biological target: HLA-B*46:01
Experiment: IEDB peptide-MHC binding, purified MHC/competitive/fluorescence; filed as Kd, often an IC50 or EC50 that approximates it; bounds were set here for any values at or beyond the usual limits of such assays
Details: source organism: Influenza A virus (A/Victoria/1968(H3N2))
pKd: −log10 of the molar value.
measured-property: pKd

Specify the recorded pKd for "NMDKAVKLY" , system: HLA-B*46:01.
≤ 4.70

====

Molecular target: HLA-A*24:02
Test: IEDB peptide-MHC binding, purified MHC/competitive/fluorescence; bounds were set here for any values at or beyond the usual limits of such assays
Conditions: source organism: Homo sapiens
measured-property: IC50 (nM)
Express the result in nM but write the number alone.

Look up IC50 of "FYYNAFHWAI" and report it.
305

====

Biological target: HLA-A*68:02
Test: IEDB peptide-MHC binding, purified MHC/competitive/fluorescence; filed as Kd, often an IC50 or EC50 that approximates it; bounds were set here for any values at or beyond the usual limits of such assays
Details: source organism: Escherichia coli HS
measured-property: Kd

Identify the reported Kd for the following entry. "ISLWGSLLK"
≥ 20 µM

====

Target: HLA-A*24:03
Test: IEDB peptide-MHC binding, purified MHC/direct/fluorescence; filed as Kd, often an IC50 or EC50 that approximates it; bounds were set here for any values at or beyond the usual limits of such assays
Details: source organism: Klebsiella pneumoniae
measured-property: Kd

For "LLQEKYGLI" , write its Kd.
≥ 20 µM

====

Target: HLA-A*30:02
Assay: IEDB peptide-MHC binding, purified MHC/competitive/radioactivity; filed as Kd, often an IC50 or EC50 that approximates it; bounds were set here for any values at or beyond the usual limits of such assays
Conditions: source organism: Dengue virus 4 Philippines/H241/1956
Give measured Kd for each item. Keep answers brief.
The figure you give is taken to be in nM; do not add the unit.

Give HLA-A*30:02 Kd for the following sequence: "SLVMLLVHY"
1600

Check HLA-A*30:02 data and give Kd for "ASLVMLLVHY" .
1900

Look up and report Kd, with HLA-A*30:02 as system, for "IGKMLESTY"
18.5

Provide Kd, tested on HLA-A*30:02, for "RTWAYHGSY" .
0.19

With HLA-A*30:02 as the test system, provide measured Kd for this sequence: "TANIFRGSY"
6.79

Provide the reported Kd (system: HLA-A*30:02) for "MAVFKMSPGY"
501

====

Molecular target: HLA-B*44:03
Test: IEDB peptide-MHC binding, purified MHC/competitive/radioactivity; filed as Kd, often an IC50 or EC50 that approximates it; bounds were set here for any values at or beyond the usual limits of such assays
Settings: source organism: Dengue virus 1 Singapore/S275/1990
measured-property: pKd
Answer as the number alone; pKd is minus log10 of concentration in mol/L.

Determine its reported pKd: "HEHKSTWHY"
8.04

====

Target: HLA-A*11:01
Assay: IEDB peptide-MHC binding, purified MHC/direct/fluorescence; filed as Kd, often an IC50 or EC50 that approximates it; bounds were set here for any values at or beyond the usual limits of such assays
Details: source organism: Camelpox virus M-96
Please provide measured pKd for the entries that follow.
Here pKd is given on a logarithmic scale as minus log10 of the concentration in mol/L.

Quick one: give measured pKd for "RVYNNTARY"
7.65

Find the measured pKd of "ATNDGLIKK" and report it.
8.00

Annotate the sequence "LTFLHTLYK" with its measured pKd.
6.98
